Test system: P388 lymphocytic leukemia
assay comment: Antitumor activity in mice (P388, qd 1-9)
Type: in vivo
protocol conditions: ip, days 1-9
Structures can show the parent of a compound that is named as a salt.
measured parameter: Opt. Dose (P388, qd 1-9) (mg/kg)
The response must be a number in mg/kg with no trailing unit.

Past entries and their recorded results:
| molecule | experimental system | unit tag | Opt. Dose (P388, qd 1-9) |
| --- | --- | --- | --- |
| COc1cccc2c1C(=O)c1c(O)c3c(c(O)c1C2=O)C[C@@](O)(C(=O)CO)C[C@@H]3O[C@H]1C[C@H](N)[C@H](O)[C@H](C)O1 [Adriamycin hydrochloride] | P388 lymphocytic leukemia | mg/kg | 0.78 |
| COc1cccc2c1C(=O)c1c(O)c3c(c(O)c1C2=O)C[C@@](O)(C(O)CO)C[C@@H]3O[C@H]1C[C@H](N2CCCCC2)[C@H](O)[C@H](C)O1 (stereo partly shown) [N,N-Pentamethylene-13-dihydroadriamycin] | P388 lymphocytic leukemia | mg/kg | 1.56 |

response.value for COc1cccc2c1C(=O)c1c(O)c3c(c(O)c1C2=O)C[C@@](O)(C(=O)CO)C[C@@H]3O[C@H]1C[C@H](N2CCCCC2)[C@H](O)[C@H](C)O1 (field: Opt. Dose (P388, qd 1-9)) = 3.13

Opt. Dose (P388, qd 1-9) reading for COc1cccc2c1C(=O)c1c(O)c3c(c(O)c1C2=O)C[C@@](O)(C(C)=O)C[C@@H]3O[C@H]1C[C@H](N)[C@H](O)[C@H](C)O1 [Daunomycin hydrochloride] : 0.78
